test: Effect on high fat diet-fed po dosed C57BL/6J mouse model of obesity and diabetes assessed as water intake; format: organism-based; conditions: in vivo
metric-name: Activity (mL/day)
The response must be a number in mL/day with no trailing unit.

[ask] Could you share which Activity value was measured for CCCC[C@@H]1[C@H]2CCCN3CCC[C@@H](CN1S(=O)(=O)c1ccc(C(F)(F)F)cc1)[C@@H]23 ?
[reply] 4.38

---

assay: Effect on high fat diet-fed KK-Ay mouse model of obesity and diabetes assessed as water intake at 50 mg/kg, po (reference value: 21.2 +/- 4.17 ml/day); type: ADME, organism-based; conditions: in vivo
metric-name: Activity (mL/day)
Form entry: value (mL/day) — number only.

[ask] Look up Activity for this molecule: CCCC[C@@H]1[C@H]2CCCN3CCC[C@@H](CN1S(=O)(=O)c1ccc(C(F)(F)F)cc1)[C@@H]23
[reply] 13.8
